tested on: Escherichia coli TOP10; test: shrunken log2 fold change of peptide-encoding DNA abundance (4.5 h post-induction vs induction); higher = less antimicrobial activity (less host growth inhibition); conditions: time post-induction: 4.5 h; library: site-saturation at positions 5, 18, 19, 20
Each item that follows carries a reported shrunken log2 fold change.
Please respond with just the number, no unit label.

# seq text, shrunken log2 fold change
data = [
    ("RRIRGRPPRLPRPRPRPRVNPRP", 0.394),
]

Briefly, shrunken log2 fold change measured for `RRIRMRPPRLPRPRPRPGADPRP` : 2.39

Lab book: shrunken log2 fold change of `RRIRMRPPRLPRPRPRPKIWPRP` noted as 0.704

Input `RRIRNRPPRLPRPRPRPDFDPRP` . Output shrunken log2 fold change: -0.0771

The measured shrunken log2 fold change associated with `RRIRIRPPRLPRPRPRPKWWPRP` reads 0.188

Value of measured shrunken log2 fold change for the entry `RRIRERPPRLPRPRPRPDRSPRP` : -0.0225

The sequence listed as `RRIRKRPPRLPRPRPRPFEIPRP` has a reported shrunken log2 fold change of -0.201

According to the records, this sequence `RRIRYRPPRLPRPRPRPMYSPRP` displays shrunken log2 fold change of -0.018

----------
system: Escherichia coli TOP10; assay: shrunken log2 fold change of peptide-encoding DNA abundance (4.5 h post-induction vs induction); higher = less antimicrobial activity (less host growth inhibition); details: time post-induction: 4.5 h; library: site-saturation at positions 5, 18, 19, 20
reported metric: shrunken log2 fold change

Notebook: `RRIRTRPPRLPRPRPRPYQQPRP` , shrunken log2 fold change read as 0.0675

The value of shrunken log2 fold change measured for the sequence `RRIRVRPPRLPRPRPRPMSMPRP` turned out to be -0.323

Recorded result, `RRIRARPPRLPRPRPRPAHCPRP` , shrunken log2 fold change: 0.433

Record `RRIRARPPRLPRPRPRPLTWPRP` , field shrunken log2 fold change: 0.272

GET /value?item= `RRIRDRPPRLPRPRPRPVHDPRP` &field=shrunken log2 fold change returns 0.19

The reported value for `RRIRARPPRLPRPRPRPTWMPRP` in terms of shrunken log2 fold change is 0.221

What the record says about `RRIRYRPPRLPRPRPRPFAWPRP` : shrunken log2 fold change is -0.0365

Recorded shrunken log2 fold change (sequence `RRIRWRPPRLPRPRPRPRVWPRP` ): 0.646

Record summary for `RRIRTRPPRLPRPRPRPMQSPRP` : reported shrunken log2 fold change = -0.349

Looking up `RRIRCRPPRLPRPRPRPTDWPRP` , I see its shrunken log2 fold change listed as 0.169

Data point: `RRIRQRPPRLPRPRPRPVNQPRP` ; shrunken log2 fold change = -0.0686

sequence `RRIRTRPPRLPRPRPRPIGTPRP` , shrunken log2 fold change observed: 0.0179

----------
shrunken log2 fold change listing for selected sequences.
system: Escherichia coli TOP10; test: shrunken log2 fold change of peptide-encoding DNA abundance (4.5 h post-induction vs induction); higher = less antimicrobial activity (less host growth inhibition); details: time post-induction: 4.5 h; library: site-saturation at positions 5, 18, 19, 20
API doc: respond with a numeric literal and nothing else, no unit.

The recorded shrunken log2 fold change for entry `RRIRRRPPRLPRPRPRPTQCPRP` equals 0.252

sequence `RRIRGRPPRLPRPRPRPRQRPRP` , shrunken log2 fold change observed: 0.815

Entry `RRIRDRPPRLPRPRPRPRDIPRP` ; shrunken log2 fold change = 0.0838

Noted for `RRIRKRPPRLPRPRPRPHVFPRP` : its shrunken log2 fold change reads 0.015

shrunken log2 fold change for `RRIRIRPPRLPRPRPRPGFRPRP` is 0.0935

----------
test system: Escherichia coli TOP10; assay: shrunken log2 fold change of peptide-encoding DNA abundance (4.5 h post-induction vs induction); higher = less antimicrobial activity (less host growth inhibition); conditions: time post-induction: 4.5 h; library: site-saturation at positions 5, 18, 19, 20
Catalogue of shrunken log2 fold change readings, one per entry.

Consider the reported shrunken log2 fold change for these sequences:
# seq text, tested on, shrunken log2 fold change
data = [
    ("RRIRMRPPRLPRPRPRPTKLPRP", "Escherichia coli TOP10", 0.287),
    ("RRIRIRPPRLPRPRPRPLQFPRP", "Escherichia coli TOP10", -0.0429),
    ("RRIRERPPRLPRPRPRPIDFPRP", "Escherichia coli TOP10", 0.136),
    ("RRIRHRPPRLPRPRPRPNAMPRP", "Escherichia coli TOP10", -0.0505),
    ("RRIRPRPPRLPRPRPRPCRIPRP", "Escherichia coli TOP10", -0.00277),
    ("RRIRHRPPRLPRPRPRPYNWPRP", "Escherichia coli TOP10", -0.928),
    ("RRIRYRPPRLPRPRPRPVFMPRP", "Escherichia coli TOP10", -0.484),
    ("RRIRSRPPRLPRPRPRPWHAPRP", "Escherichia coli TOP10", 0.0362),
    ("RRIRERPPRLPRPRPRPMEDPRP", "Escherichia coli TOP10", -0.0739),
    ("RRIRMRPPRLPRPRPRPEKIPRP", "Escherichia coli TOP10", 0.856),
]

Looking up `RRIRIRPPRLPRPRPRPGQHPRP` , I found its shrunken log2 fold change recorded as -0.0183

Entry under test: `RRIRGRPPRLPRPRPRPRLNPRP` . Its shrunken log2 fold change was 0.57

----------
Measured shrunken log2 fold change by item
tested on: Escherichia coli TOP10; test: shrunken log2 fold change of peptide-encoding DNA abundance (4.5 h post-induction vs induction); higher = less antimicrobial activity (less host growth inhibition); conditions: time post-induction: 4.5 h; library: site-saturation at positions 5, 18, 19, 20

Below, 3 sequences whose answers are already recorded.
# seq text, shrunken log2 fold change
records = [
    ("RRIRKRPPRLPRPRPRPRTSPRP", 0.525),
    ("RRIRYRPPRLPRPRPRPWYYPRP", -0.00865),
    ("RRIRCRPPRLPRPRPRPSQIPRP", -0.698),
]

The reported value for `RRIRKRPPRLPRPRPRPMENPRP` in terms of shrunken log2 fold change is 0.0428

Query `RRIRERPPRLPRPRPRPRMNPRP` yields shrunken log2 fold change of 0.0757

// shrunken log2 fold change lookup, sequence = `RRIRHRPPRLPRPRPRPMQHPRP` , result: 0.0685

response.value for `RRIRKRPPRLPRPRPRPSNIPRP` (field: shrunken log2 fold change) = -0.306

// shrunken log2 fold change lookup, sequence = `RRIRLRPPRLPRPRPRPYLNPRP` , result: -1.13

----------
test system: Escherichia coli TOP10; assay: shrunken log2 fold change of peptide-encoding DNA abundance (4.5 h post-induction vs induction); higher = less antimicrobial activity (less host growth inhibition); conditions: time post-induction: 4.5 h; library: site-saturation at positions 5, 18, 19, 20
Assign y to entries whose shrunken log2 fold change meets or exceeds -0.01; assign n to the rest.

These recorded examples may help you get a feel for the data.
# seq text, tested on, label value
records = [
    ("RRIRMRPPRLPRPRPRPLFQPRP", "Escherichia coli TOP10", "n"),
    ("RRIRMRPPRLPRPRPRPVYKPRP", "Escherichia coli TOP10", "n"),
    ("RRIRWRPPRLPRPRPRPETLPRP", "Escherichia coli TOP10", "y"),
    ("RRIRVRPPRLPRPRPRPSPDPRP", "Escherichia coli TOP10", "n"),
    ("RRIRSRPPRLPRPRPRPPTSPRP", "Escherichia coli TOP10", "y"),
]

Qu. Form field: shrunken log2 fold change at least -0.01? Entry: `RRIRPRPPRLPRPRPRPELIPRP`
Ans. y

Qu. Quick check, shrunken log2 fold change >= -0.01? `RRIRERPPRLPRPRPRPQVWPRP`
Ans. n

Qu. Decide: shrunken log2 fold change of `RRIRVRPPRLPRPRPRPRLLPRP` >= -0.01?
Ans. y

----------
tested on: Escherichia coli TOP10; assay: shrunken log2 fold change of peptide-encoding DNA abundance (4.5 h post-induction vs induction); higher = less antimicrobial activity (less host growth inhibition); settings: time post-induction: 4.5 h; library: site-saturation at positions 5, 18, 19, 20;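 note: peptides expressed intracellularly from a pBAD plasmid library in pooled LB shake-flask culture, induced with 0.3% L-arabinose, DNA abundance read by NGS, three biological replicates, DESeq2 with apeglm shrinkage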
reported metric: shrunken log2 fold change
I only need the number, thanks.

# seq text, shrunken log2 fold change
records = [
    ("RRIRERPPRLPRPRPRPFQIPRP", -0.145),
    ("RRIRNRPPRLPRPRPRPLWWPRP", 0.605),
]

Result for `RRIRYRPPRLPRPRPRPRFFPRP` , tested on Escherichia coli TOP10, shrunken log2 fold change: -0.0565

The recorded shrunken log2 fold change with Escherichia coli TOP10 for `RRIRYRPPRLPRPRPRPVDAPRP` was -0.42
